- target: full length recombinant Pim-1 protein (Homo sapiens)
- Construct: by full length recombinant Pim-1, Pim-2, or Pim-3 protein; hexahistidine tag followed by a thrombin cleavage site (N); made in house; host or cells: Sf9 (baculovirus) or E. coli (pET28)
- Sequence (P11309 whole entry): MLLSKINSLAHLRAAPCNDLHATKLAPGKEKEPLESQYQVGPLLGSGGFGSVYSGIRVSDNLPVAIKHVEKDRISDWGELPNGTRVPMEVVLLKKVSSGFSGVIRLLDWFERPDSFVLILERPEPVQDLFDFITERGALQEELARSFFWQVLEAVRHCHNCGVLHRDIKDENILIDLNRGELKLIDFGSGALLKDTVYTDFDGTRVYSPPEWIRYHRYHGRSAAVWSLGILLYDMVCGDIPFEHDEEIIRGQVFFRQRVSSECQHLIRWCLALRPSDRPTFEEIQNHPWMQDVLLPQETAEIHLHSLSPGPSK
- assay comment: Pim-1 enzyme assay (HTRF, phosphorylation of biotinylated-BAD (S112) peptide)
- Format: biochemical
- test parameters: enzyme assay, Pim-1; read-out: Pim_1_IC50
pIC50: −log10 of the molar value.
Each record here notes measured pIC50.
assay readout: pIC50

- O=C(NC1CC1)c1ccc(F)c(-c2ccc3[nH]nc(-c4cncc(O[C@@H]5CCCNC5)n4)c3c2)c1: 7.89
- Fc1cccc(F)c1-c1ccc2[nH]nc(-c3cncc(OC4CCNC4)n3)c2c1 (centres unmarked): 7.30
- NC1CCN(c2cncc(-c3n[nH]c4ccc(-c5ccn[nH]5)cc34)n2)CC1: 8.52
- NC1CCN(c2cncc(-c3c[nH]c4ccc([N+](=O)[O-])cc34)n2)CC1: 7.33
- CC(C)Oc1cccc(-c2ccc3[nH]nc(-c4cncc(O[C@@H]5CCCNC5)n4)c3c2)n1: 7.57
- CN1C(=O)Cc2cc(-c3ccc4[nH]nc(-c5cncc(N6CCC(N)CC6)n5)c4c3)ccc21: 7.89
- Fc1cccc(F)c1-c1ccc2[nH]cc(-c3cncc(NC4CCNCC4)n3)c2c1: 8.40
- CS(=O)(=O)c1ccc(-c2ccc3[nH]nc(-c4cncc(N5CCC(N)CC5)n4)c3c2)cc1: 8.52

---

Each record here notes measured pIC50.
- target: full length recombinant Pim-3 protein (Homo sapiens, UniProt Q86V86)
- Construct: by full length recombinant Pim-1, Pim-2, or Pim-3 protein; purchased Millipore (UK)
- assay comment: Pim-3 enzyme assay (HTRF, phosphorylation of biotinylated-BAD (S112) peptide)
- Assay type: biochemical
- test parameters: read-out: Pim3 IC50
pIC50: −log10 of the molar value.
assay readout: pIC50

- NC1CCN(c2cncc(-c3n[nH]c4ccc(-c5cnc6ccccc6c5)cc34)n2)CC1 [Example 55]: 9.00
- Fc1cccc(F)c1-c1ccc2[nH]cc(-c3cncc(N[C@@H]4CCCNC4)n3)c2c1 [Example 207]: 8.40
- CS(=O)(=O)c1cccc(-c2ccc3[nH]nc(-c4cncc(N5CCC(N)CC5)n4)c3c2)c1 [Example 76]: 8.30
- COc1cccc(-c2ccc3[nH]nc(-c4cncc(O[C@@H]5CCCNC5)n4)c3c2)c1F [Example 131]: 8.30
- CN1CCN(c2ccc3[nH]nc(-c4cncc(N5CCC(N)CC5)n4)c3c2)C1=O [Example 92]: 8.30
- NC1CCN(c2cncc(-c3c[nH]c4ccc([N+](=O)[O-])cc34)n2)CC1 [Example 232]: 7.55
- NC(=O)c1ccc2[nH]cc(-c3cncc(N4CCC(N)CC4)n3)c2c1 [Example 238]: 6.51
- CC(C)Oc1cccc(-c2ccc3[nH]nc(-c4cncc(N5CCC(N)CC5)n4)c3c2)n1 [Example 64]: 7.80
- COc1cccc(-c2ccc3[nH]nc(-c4cncc(O[C@@H]5CCCNC5)n4)c3c2)n1 [Example 137]: 8.22
- NC1CCN(c2cncc(-c3n[nH]c4ccc(-c5ccccc5)cc34)n2)CC1 [Example 75]: 8.52
- CC(C)NC(=O)c1ccc(F)c(-c2ccc3[nH]nc(-c4cncc(N5CCC(N)CC5)n4)c3c2)c1 [Example 44]: 8.40
- COc1cncc(-c2ccc3[nH]nc(-c4cnc(N5CCC(N)CC5)s4)c3c2)c1 [Example 31]: 8.40
- c1cc2[nH]nc(-c3cncc(O[C@@H]4CCCNC4)n3)c2cc1C1CCOCC1 [Example 151]: 6.89
- COc1cccc(-c2ccc3[nH]nc(-c4cncc(N5CCC(N)CC5)n4)c3c2)c1F [Example 4]: 8.40
- c1cc(-c2ccc3[nH]nc(-c4cncc(O[C@@H]5CCCNC5)n4)c3c2)nc(C2CC2)c1 [Example 136]: 7.82
- Fc1cccc(F)c1-c1ccc2[nH]cc(-c3cncc(O[C@H]4CCCNC4)n3)c2c1 [Example 214]: 7.08
- O[C@H]1CCN(c2cncc(-c3n[nH]c4ccc(-c5c(F)cccc5F)cc34)n2)C1 [Example 175]: 6.82

---

- target: full length recombinant Pim-3 protein (Homo sapiens, UniProt Q86V86)
- Construct: by full length recombinant Pim-1, Pim-2, or Pim-3 protein
- assay comment: Pim-3 enzyme assay (HTRF, phosphorylation of biotinylated-BAD (S112) peptide)
- test parameters: read-out: Pim3 IC50
assay readout: IC50 (nM)

• NC1CCN(c2cncc(-c3n[nH]c4ccc(-c5cc(C(=O)N6CCOCC6)ccc5F)cc34)n2)CC1 = 20
• Nc1nccc(N2CCc3ccc(-c4ccc5[nH]nc(-c6cncc(N7CCC(N)CC7)n6)c5c4)cc32)n1 = 33
• CN1CCOc2cc(-c3ccc4[nH]nc(-c5cncc(N6CCC(N)CC6)n5)c4c3)cnc21 = 1
• Nc1ncc(-c2ccc3[nH]nc(-c4cncc(N5CCC(N)CC5)n4)c3c2)cn1 = 1
• CC(C)Nc1nccc(-c2n[nH]c3ccc(-c4c(F)cccc4F)cc23)n1 = 143
• NC1CCN(c2cncc(-c3n[nH]c4ccc(N5CCOCC5)cc34)n2)CC1 = 49

---

- target: full length recombinant Pim-1 protein (Homo sapiens)
- Construct: by full length recombinant Pim-1, Pim-2, or Pim-3 protein; hexahistidine tag followed by a thrombin cleavage site (N); made in house; host or cells: Sf9 (baculovirus) or E. coli (pET28)
- assay comment: Pim-1 enzyme assay (HTRF, phosphorylation of biotinylated-BAD (S112) peptide)
- Format: biochemical
- test parameters: read-out: Pim_1_IC50
- Experimental: These cDNAs were used as templates in PCR reactions to produce full-length DNA clones of the PIMs. […] This step was repeated 3× and the resin was transferred to a 2.5 cm glass column. […] Fractions were analyzed by SDS-PAGE and those containing the protein of interest were pooled and concentrated. […] The final buffer conditions were as follows: 60 mM Hepes, pH 7.0, 0.05% BSA, 2 mM DTT. […] For each plate, percent of control (POC) values were calculated for each well. […]
assay readout: IC50 (nM)

- CC(C)Oc1cncc(-c2ccc3[nH]cc(-c4nnc(N5CCCC5)o4)c3c2)n1: 52
- c1cc2[nH]nc(-c3cncc(O[C@H]4CNCCC45CC5)n3)c2cc1C1CCCC1: 4
- CN(C)C(=O)c1ccc2[nH]nc(-c3cncc(NC4CCNCC4)n3)c2c1: 159
- Fc1ccnc(F)c1-c1ccc2[nH]nc(-c3cncc(O[C@H]4CNCCC45CC5)n3)c2c1: 3
- Fc1ccc(Cl)cc1-c1ccc2[nH]nc(-c3cncc(O[C@H]4CNCCC45CC5)n3)c2c1: 1
- CC1(C)CC1c1ccc2[nH]cc(-c3cncc(O[C@@H]4CCCNC4)n3)c2c1 (some centres unmarked): 9
- Fc1cccc(F)c1-c1ccc2[nH]nc(-c3cncc(OC4CNCC5CC54)n3)c2c1 (centres unmarked) [Example 452]: 20
- COc1cc(-c2n[nH]c3ccc(-c4c(F)cccc4F)cc23)nc(N2CCC(N)CC2)n1: 15

---

- target: Pim-2 stably transfected into the U2OS human osteogenic sarcoma line (Homo sapiens)
- Construct: expressed in transfected cells; host or cells: U2OS human osteogenic sarcoma line
- assay comment: Pim cell assay, phospho-BAD normalized against total BAD, U2OS stably transfected with Pim-2; note: high dose 31.6 µM
- Format: cell-based
- test parameters: U2OS cells stably transfected with Pim-2, phospho-BAD; high dose […]; read-out: Pim2_Cell_IC50
pIC50: −log10 of the molar value.
assay readout: pIC50

* NC1CCN(c2cncc(-c3n[nH]c4ccc(Br)cc34)n2)CC1 [Example 1] | 5.06
* Fc1cccc(F)c1-c1ccc2[nH]cc(-c3cncc(NC4CCNCC4)n3)c2c1 [Example 205] | 5.36
* NC1CCN(c2cncc(-c3c[nH]c4ccc(-c5c(F)cccc5Cl)cc34)n2)CC1 [Example 27, bis(2,2,2-trifluoroacetate)] | 4.57

---

Each record here notes measured pIC50.
- target: full length recombinant Pim-2 protein (Homo sapiens)
- Construct: by full length recombinant Pim-1, Pim-2, or Pim-3 protein; hexahistidine tag followed by a thrombin cleavage site (N); made in house; host or cells: Sf9 (baculovirus) or E. coli (pET28)
- Sequence (Q9P1W9 whole entry): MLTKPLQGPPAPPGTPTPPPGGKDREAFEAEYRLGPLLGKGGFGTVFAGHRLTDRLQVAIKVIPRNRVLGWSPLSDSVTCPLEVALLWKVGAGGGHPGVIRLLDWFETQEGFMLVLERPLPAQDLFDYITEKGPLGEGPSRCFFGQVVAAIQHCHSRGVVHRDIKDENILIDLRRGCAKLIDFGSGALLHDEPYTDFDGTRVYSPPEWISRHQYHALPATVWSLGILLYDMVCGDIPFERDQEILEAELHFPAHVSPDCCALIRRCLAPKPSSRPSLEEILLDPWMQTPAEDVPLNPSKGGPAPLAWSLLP
- assay comment: Pim-2 enzyme assay (HTRF, phosphorylation of biotinylated-BAD (S112) peptide)
- Format: biochemical
- test parameters: enzyme assay, Pim-2; read-out: Pim2_IC50
pIC50: −log10 of the molar value.
assay readout: pIC50

• CC(C)Nc1nccc(-c2n[nH]c3ccc(-c4c(F)cccc4F)cc23)n1 = 5.87
• c1cn2cc(-c3ccc4[nH]nc(-c5cncc(O[C@@H]6CCCNC6)n5)c4c3)ncc2n1 = 6.73
• Fc1cccnc1-c1ccc2[nH]nc(-c3cncc(O[C@@H]4CCCNC4)n3)c2c1 = 7.24
• NC1CCN(c2cncc(-c3n[nH]c4ccc(-c5ccc6ncsc6c5)cc34)n2)CC1 = 7.62
• NC(=O)c1ccc2[nH]cc(-c3cncc(N4CCC(N)CC4)n3)c2c1 = 6.12
• Fc1ccccc1-c1ccc2[nH]nc(-c3cncc(O[C@@H]4CCCNC4)n3)c2c1 = 7.77
• CC(C)c1ccnc(-c2ccc3[nH]nc(-c4cncc(O[C@@H]5CCCNC5)n4)c3c2)n1 = 6.79
• Fc1cccc(F)c1-c1ccc2[nH]cc(-c3cncc(NC4CCCNC4)c3)c2n1 (centres unmarked) = 6.61
